γ2/γ1 Selectivity Ratio values for the compounds below.
Target: human GABAA α2β2γ1 receptor (Homo sapiens (Human), UniProt P47869+Q8N1C3)
Test: Radioligand binding assay, [3H]RO7239181 competition, γ1-containing GABAA subtypes
Conditions: Ki α1β3γ2 (nM)/Ki α2β2γ1 (nM)
Description: The affinity of compounds at GABAA γ1 subunit-containing receptors was measured by competition for [^3H]RO7239181 (67.3 Ci/mmol; Roche) binding to membranes from HEK293F cells (ThermoFisher R79007) expressing human (transiently transfected) receptors of composition α5β2γ1, α2β2γ1, α1β2γ1. […]
Simply state the number, no unit and no words.

# example entries with known answers
> print(dat)
                                   compound                            assayed.target  observed.result
1  C[C@@H]1N=C(c2ncccc2F)c2c(ccc(Cl)c2Cl)-n2c(-c3cccnn3)nnc21  human GABAA α2β2γ1 receptor (Homo sapiens (Human), UniProt P47869+Q8N1C3)            103.5
2  C[C@@H]1N=C(c2ccccc2F)c2c(ccc(Br)c2Cl)-n2cnnc21  human GABAA α2β2γ1 receptor (Homo sapiens (Human), UniProt P47869+Q8N1C3)             13.3
3  Cc1cc(-c2nnc3n2-c2ccc(Cl)c(Cl)c2C(c2c(F)cccc2F)=N[C@H]3C)ncn1  human GABAA α2β2γ1 receptor (Homo sapiens (Human), UniProt P47869+Q8N1C3)             76.4

In: Endpoint output: γ2/γ1 Selectivity Ratio of `C[C@@H]1N=C(c2ncccc2F)c2c(ccc(Cl)c2Cl)-n2c(-c3ccncn3)nnc21` . Value?
Out: 33.5

In: So what's the measured γ2/γ1 Selectivity Ratio for this one? `C[C@@H]1N=C(c2ncccc2F)c2c(ccc(Br)c2Cl)-n2cnnc21`
Out: 16.9

In: For the compound shown here, `COC[C@@H]1N=C(c2c(F)cccc2F)c2c(ccc(Br)c2Cl)-n2c(C)nnc21` , give the reported γ2/γ1 Selectivity Ratio.
Out: 14.6

In: Suppose we examine the compound `Cc1nnc2n1-c1ccc(C(C)(F)F)c(Cl)c1C(c1c(F)cccc1F)=N[C@H]2C` ; what γ2/γ1 Selectivity Ratio value has been reported?
Out: 152.1

In: Need γ2/γ1 Selectivity Ratio, item Clc1ccc2c(c1)C(c1ccccc1)=NCc1nncn1-2 [Estazolam, reference compound]
Out: 0.0089

In: Reported γ2/γ1 Selectivity Ratio for `CCc1nnc2n1-c1ccc(C(F)(F)F)c(Cl)c1C(c1c(F)cccc1F)=N[C@H]2C` : what is it?
Out: 50.4

In: Would you kindly share the measured γ2/γ1 Selectivity Ratio for `Cc1nnc2n1-c1ccc(Cl)c(Cl)c1C(c1c(F)cccc1F)=N[C@H]2C` ?
Out: 24.6

In: Which γ2/γ1 Selectivity Ratio is reported for this compound? `CCc1ccc2c(c1Cl)C(c1c(F)cccc1F)=N[C@@H](C)c1nnc(C)n1-2`
Out: 11.5

In: Return reported γ2/γ1 Selectivity Ratio; argument: `Cc1ccc(-c2nnc3n2-c2ccc(Cl)c(Br)c2C(c2c(F)cccc2F)=N[C@H]3C)nn1`
Out: 133.6

In: Please report the recorded γ2/γ1 Selectivity Ratio for `C[C@@H]1N=C(c2c(F)cccc2F)c2c(ccc(Cl)c2Br)-n2c1n[nH]c2=O` .
Out: 19.0

In: γ2/γ1 Selectivity Ratio for Cc1nnc2n1-c1ccc(Cl)cc1C(c1ccccc1)=NC2 [Alprazolam, reference compound] ?
Out: 0.0050
